tested.system: Rat Kidney Medullary V2 Receptors (Rattus norvegicus)
Sequence (Q00788 whole entry): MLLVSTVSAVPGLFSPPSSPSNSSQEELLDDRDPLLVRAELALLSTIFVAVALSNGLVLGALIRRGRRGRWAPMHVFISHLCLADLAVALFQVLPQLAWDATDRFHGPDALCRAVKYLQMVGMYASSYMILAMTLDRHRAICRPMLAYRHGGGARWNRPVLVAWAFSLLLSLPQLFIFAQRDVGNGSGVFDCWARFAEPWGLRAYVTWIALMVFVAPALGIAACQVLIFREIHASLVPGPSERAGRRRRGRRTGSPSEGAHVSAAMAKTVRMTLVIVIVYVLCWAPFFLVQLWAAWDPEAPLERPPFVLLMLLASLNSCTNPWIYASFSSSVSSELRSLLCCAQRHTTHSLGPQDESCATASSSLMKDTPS
pIC50: −log10 of the molar value. Counter-ions that a name gives are not always drawn.
# label = bin(measured pIC50), where bins are band A (below 7), band B (7 to below 8), band C (8 or more)

>>> group("CN(C)c1ncccc1C(=O)Nc1ccc(C(=O)N2Cc3cccn3Cc3ccccc32)cc1 [Example 338]")
"band C"
>>> group("O=C(Nc1ccc(C(=O)N2Cc3cccn3Cc3ccccc32)cn1)c1ccccc1Cl")
"band C"
>>> group("O=C(c1ccc(NC2CCc3ccccc32)nc1)N1Cc2cccn2Cc2ccccc21 (stereo not drawn)")
"band B"
>>> group("Cc1c(F)cccc1C(=O)Nc1ccc(C(=O)N2Cc3cccn3Cc3ccccc32)cn1")
"band C"

Into which bin does this molecule go? CN(C)c1ncccc1C(=O)Nc1ccc(C(=O)N2Cc3cccn3Cc3ccccc32)cc1 [Example 332, Hydrochloride]
band C

Into which bin does this molecule go? CC(C)(Oc1ccc(Cl)cc1)C(=O)Nc1ccc(C(=O)N2Cc3cccn3Cc3ccccc32)cc1
band A
